Conditions: human
// map reference log Vdss onto a label; ranges range A: < -0.6; range B: ≥ -0.6 and < 0.03; range C: ≥ 0.03

Query: Where would CCCN(CCC)S(=O)(=O)c1ccc(C(=O)O)cc1 [Probenecid] land among the classes by reported reference log Vdss?
Response: range A

Query: Where would Cc1ncc([N+](=O)[O-])n1CCO [Metronidazole] land among the classes by reported reference log Vdss?
Response: range B

Query: Where would CC(=O)CCCCn1c(=O)c2c(ncn2C)n(C)c1=O [Pentoxifylline] land among the classes by reported reference log Vdss?
Response: range B

Query: Where would CCC1(c2ccccc2)C(=O)NCNC1=O [Primidone] land among the classes by reported reference log Vdss?
Response: range B

Query: Where would CC1=NS(=O)(=O)c2cc(Cl)ccc2N1 [Diazoxide] land among the classes by reported reference log Vdss?
Response: range B

Query: Where would C[C@H]1C[C@@H]2[C@H]([C@@H](O)C[C@@]3(C)[C@H]2CC[C@]3(O)C(=O)CO)[C@@]2(C)C=CC(=O)C=C12 [Methylprednisolone] land among the classes by reported reference log Vdss?
Response: range C

Query: Where would Cc1c(Cl)cccc1Nc1ccccc1C(=O)O [Tolfenamic Acid] land among the classes by reported reference log Vdss?
Response: range A

Query: Where would Cc1cc(C)nc(NS(=O)(=O)c2ccc(N)cc2)n1 [Sulphadimidine] land among the classes by reported reference log Vdss?
Response: range C

Query: Where would COC(=O)C1=C(C)NC(C)=C(C(=O)OCCN(C)Cc2ccccc2)C1c1cccc([N+](=O)[O-])c1 (stereo not shown) [Nicardipine] land among the classes by reported reference log Vdss?
Response: range C

Query: Where would O=C(O)Cc1ccccc1Nc1c(Cl)cccc1Cl [Diclofenac] land among the classes by reported reference log Vdss?
Response: range A

Query: Where would NS(=O)(=O)c1cc2c(cc1Cl)NCNS2(=O)=O [Hydrochlorothiazide] land among the classes by reported reference log Vdss?
Response: range B

Query: Where would CC(O)Cn1cnc2c1c(=O)n(C)c(=O)n2C (stereo not shown) [Proxyphylline] land among the classes by reported reference log Vdss?
Response: range A

Query: Where would COC(=O)C1=C(C)NC(C)=C(C(=O)OC(C)C)C1c1cccc2nonc12 (stereo not shown) [Isradipine] land among the classes by reported reference log Vdss?
Response: range C

Query: Where would Nc1ccc(S(=O)(=O)Nc2ccc(Cl)nn2)cc1 [Sulfachlorpyridazine] land among the classes by reported reference log Vdss?
Response: range A

Query: Where would CC(C(=O)O)c1cccc(Oc2ccccc2)c1 (stereo not shown) [Fenoprofen] land among the classes by reported reference log Vdss?
Response: range A

Query: Where would CC(C)(C)NC(=O)[C@H]1CC[C@H]2[C@@H]3CC[C@H]4NC(=O)C=C[C@]4(C)[C@H]3CC[C@]12C [Finasteride] land among the classes by reported reference log Vdss?
Response: range C

Query: Where would C[C@]12C=CC(=O)C=C1CC[C@@H]1[C@@H]2C(=O)C[C@@]2(C)[C@H]1CC[C@]2(O)C(=O)CO [Prednisone] land among the classes by reported reference log Vdss?
Response: range C

====

Experiment: IAM chromatography on new IAM.PC.DD2 columns (gradient HPLC, CHI (IAM))
Assay type: physicochemical
Parameters: key: CHI (IAM) from retention times calibrated to predefined CHI standards
Details: new IAM.PC.DD2 column batch P20511-014-3, pH 7.4
Please respond with reported P20511-014-3 CHI (IAM) for every item in the list.

Record CCn1nc(C(=O)O)c(=O)c2cc3c(cc21)OCO3 [Cinoxacin] . Reported P20511-014-3 CHI (IAM): 6.67

Record NC(=O)OCC(COC(N)=O)c1ccccc1 [Felbamate] . Reported P20511-014-3 CHI (IAM): 39.21

Record CC(=O)N1CCN(c2ccc(OCC3COC(Cn4ccnc4)(c4ccc(Cl)cc4Cl)O3)cc2)CC1 (stereo not shown) [Ketoconazole] . Reported P20511-014-3 CHI (IAM): 39.26

Record NS(=O)(=O)c1cc2c(cc1Cl)NCNS2(=O)=O [Hydrochlorothiazide] . Reported P20511-014-3 CHI (IAM): 13.08

Record COc1cc2c(c(OC)c1OC)-c1ccc(OC)c(=O)cc1[C@@H](NC(C)=O)CC2 [Colchicine] . Reported P20511-014-3 CHI (IAM): 23.18

Record CCC1(c2ccccc2)C(=O)NCNC1=O [Primidone] . Reported P20511-014-3 CHI (IAM): 10.49

Record CC(=O)Nc1ccccc1 [Acetanilide] . Reported P20511-014-3 CHI (IAM): 11.50

Record NC(=O)N1c2ccccc2C=Cc2ccccc21 [Carbamazepine] . Reported P20511-014-3 CHI (IAM): 27.07

Record Cn1cnc2c1c(=O)[nH]c(=O)n2C [Theobromine] . Reported P20511-014-3 CHI (IAM): -3.71

Record COc1cc(Cc2cnc(N)nc2N)cc(OC)c1OC [Trimethoprim] . Reported P20511-014-3 CHI (IAM): 20.52

====

Assay: IAM chromatography on new IAM.PC.DD2 columns (gradient HPLC, CHI (IAM))
Type: physicochemical
Parameters: key: CHI (IAM) from retention times calibrated to predefined CHI standards
Conditions: system suitability test compounds, new IAM.PC.DD2 columns, pH 7.4
Measurement label: CHI (IAM) “new”
Please reply with the number alone, leaving off any unit.

Record CC(C)NCC(O)COc1cccc2ccccc12 (centres unmarked) . Reported CHI (IAM) “new”: 42.0

Record NC(=O)N1c2ccccc2C=Cc2ccccc21 [Carbamazepine] . Reported CHI (IAM) “new”: 27.0

Record "CN(C)CCCN1c2ccccc2CCc2ccccc21" . Reported CHI (IAM) “new”: 45.0

Record "COc1ccc2c(c1)c(CC(=O)O)c(C)n2C(=O)c1ccc(Cl)cc1" . Reported CHI (IAM) “new”: 30.0

Record CC(C(=O)O)c1cccc(C(=O)c2ccccc2)c1 (centres unmarked) . Reported CHI (IAM) “new”: 20.0

====

Assay: IAM chromatography on new IAM.PC.DD2 columns (gradient HPLC, CHI (IAM))
Format: physicochemical
Parameters: key: CHI (IAM) from retention times calibrated to predefined CHI standards
Details: new IAM.PC.DD2 column batch P20511-014-3, pH 7.4
// map P20511-014-3 CHI (IAM) onto a label; ranges group A (below 10), group B (10 to below 30), group C (30 or more)

Query: Where would "COc1ccc(Cc2nccc3cc(OC)c(OC)cc23)cc1OC" land among the classes by reported P20511-014-3 CHI (IAM)?
Response: group C

Query: Where would CC1=NS(=O)(=O)c2cc(Cl)ccc2N1 [Diazoxide] land among the classes by reported P20511-014-3 CHI (IAM)?
Response: group B

Query: Where would "Clc1ccc2c(c1)C(N1CCNCC1)=Nc1ccccc1O2" land among the classes by reported P20511-014-3 CHI (IAM)?
Response: group C

Query: Where would "CCOC(=O)c1ncn2c1CN(C)C(=O)c1cc(F)ccc1-2" land among the classes by reported P20511-014-3 CHI (IAM)?
Response: group B

Query: Where would "Cc1ncc([N+](=O)[O-])n1CCO" land among the classes by reported P20511-014-3 CHI (IAM)?
Response: group A

Query: Where would "Cc1onc(-c2c(F)cccc2Cl)c1C(=O)N[C@@H]1C(=O)N2[C@@H]1SC(C)(C)[C@@H]2C(=O)O" land among the classes by reported P20511-014-3 CHI (IAM)?
Response: group B

Query: Where would CC(O)Cn1cnc2c1c(=O)n(C)c(=O)n2C (stereo not drawn) land among the classes by reported P20511-014-3 CHI (IAM)?
Response: group B

Query: Where would "COc1cnc(NS(=O)(=O)c2ccc(N)cc2)nc1" land among the classes by reported P20511-014-3 CHI (IAM)?
Response: group A

====

Assay: IAM chromatography on new IAM.PC.DD2 columns (gradient HPLC, CHI (IAM))
Assay type: physicochemical
Settings: new IAM.PC.DD2 column batch R20511-014-3, pH 7.4
The label Met is reserved for R20511-014-3 CHI (IAM) strictly under 20; Not met covers values equal to or above it.

Query: Is the reported R20511-014-3 CHI (IAM) for "COc1ccc2c(c1)c(CC(=O)O)c(C)n2C(=O)c1ccc(Cl)cc1" strictly below 20?
Response: Not met

Query: Is the reported R20511-014-3 CHI (IAM) for CC(C(=O)O)c1cccc(C(=O)c2ccccc2)c1 (centres unmarked) strictly below 20?
Response: Not met

Query: Is the reported R20511-014-3 CHI (IAM) for "OCCN1CCN(CCCN2c3ccccc3Sc3ccc(Cl)cc32)CC1" strictly below 20?
Response: Not met

Query: Is the reported R20511-014-3 CHI (IAM) for "COc1cc2nc(N3CCN(C(=O)c4ccco4)CC3)nc(N)c2cc1OC" strictly below 20?
Response: Not met

Query: Is the reported R20511-014-3 CHI (IAM) for "CCOC(=O)c1ncn2c1CN(C)C(=O)c1cc(F)ccc1-2" strictly below 20?
Response: Met

Query: Is the reported R20511-014-3 CHI (IAM) for "Cc1c(Cl)cccc1Nc1ccccc1C(=O)O" strictly below 20?
Response: Not met

Query: Is the reported R20511-014-3 CHI (IAM) for CCN1CCCC1CNC(=O)c1cc(S(N)(=O)=O)ccc1OC (centres unmarked) [Sulpiride] strictly below 20?
Response: Met

Query: Is the reported R20511-014-3 CHI (IAM) for "CC(=O)CCCCn1c(=O)c2c(ncn2C)n(C)c1=O" strictly below 20?
Response: Met

Query: Is the reported R20511-014-3 CHI (IAM) for "Cc1ccc(C)c(OCCCC(C)(C)C(=O)O)c1" strictly below 20?
Response: Not met

Query: Is the reported R20511-014-3 CHI (IAM) for "CCn1nc(C(=O)O)c(=O)c2cc3c(cc21)OCO3" strictly below 20?
Response: Met

Query: Is the reported R20511-014-3 CHI (IAM) for "COc1ccc(Cc2nccc3cc(OC)c(OC)cc23)cc1OC" strictly below 20?
Response: Not met

Query: Is the reported R20511-014-3 CHI (IAM) for CCN(CC)CCNC(=O)c1ccc(NC(C)=O)cc1 [Acecainide] strictly below 20?
Response: Met

Query: Is the reported R20511-014-3 CHI (IAM) for CCOC(=O)C1=C(C)NC(C)=C(C(=O)OC)C1c1cccc(Cl)c1Cl (centres unmarked) strictly below 20?
Response: Not met

Query: Is the reported R20511-014-3 CHI (IAM) for "O=C1NC(=O)C(c2ccccc2)(c2ccccc2)N1" strictly below 20?
Response: Not met

Query: Is the reported R20511-014-3 CHI (IAM) for NC(=O)N1c2ccccc2C=Cc2ccccc21 [Carbamazepine] strictly below 20?
Response: Not met

Query: Is the reported R20511-014-3 CHI (IAM) for CC(CCc1ccccc1)NCC(O)c1ccc(O)c(C(N)=O)c1 (centres unmarked) strictly below 20?
Response: Not met

Query: Is the reported R20511-014-3 CHI (IAM) for NS(=O)(=O)c1cc2c(cc1Cl)NCNS2(=O)=O [Hydrochlorothiazide] strictly below 20?
Response: Met

Query: Is the reported R20511-014-3 CHI (IAM) for CCOC(=O)C1=C(C)NC(C)=C(C(=O)OC)C1c1cccc([N+](=O)[O-])c1 (centres unmarked) strictly below 20?
Response: Not met

Query: Is the reported R20511-014-3 CHI (IAM) for CC(C(=O)O)c1cccc(Oc2ccccc2)c1 (centres unmarked) strictly below 20?
Response: Not met
